- Tested on: LATS2;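 also: KINOMEscan kinase panel screen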
- condition.summary: concentration: 1 μM, replicates: in singlicate; n = 1
Provide the recorded %Inh for the entries that follow.
Report the figure in % without appending any unit label.

Measured %Inh of `Fc1ccc(-c2ncn(CCCNCc3ccccc3)c2-c2ccncc2)cc1` : 34

Lab book: %Inh of `Cc1ccc(C)c(NC(=O)NCCNc2ccnc(Nc3ccc(F)cc3)n2)c1` noted as 0

Entry `Clc1cc(Nc2ncnc3cc[nH]c23)ccc1OCc1ccccn1` — recorded %Inh = 29

Memo: `FC(F)(F)c1cc(Nc2nccc(-c3c(-c4ccc(Cl)cc4)nn4ncccc34)n2)ccc1Cl` , reported %Inh: 0
